system: P. aeruginosa strain PAO1; assay: Static biofilm inhibition assay (crystal violet), PAO1; format: cell-based, Pseudomonas aeruginosa; conditions: inhibition of biofilm formation, crystal violet, 24 hours
Counter-ions that a name gives are not always drawn.
READOUT: IC50
Output should be the measured figure followed by the unit it is expressed in.

**Q:** Look at this compound and give its reported IC50. Cn1c(C(=O)NC/C=C/c2cnc(N)[nH]2)cc(Br)c1Br [sventrin, Sventrin Hydrochloride, reference compound]
**A:** 75 µM

----------
test system: P. aeruginosa strain PAO1; assay: Static biofilm inhibition assay (crystal violet), PAO1; format: cell-based, Pseudomonas aeruginosa; details: Pseudomonas aeruginosa, PAO1
READOUT: inhibition at 500 µM (%)
Supply the numeric figure in %, leaving out any unit text.

Please review the entries below; each comes with its answer.
COMPOUND: O=C(NCCCc1c[nH]c(=S)[nH]1)c1cc(Br)c[nH]1 [Compound 44]
MEASURED ON: P. aeruginosa strain PAO1
READOUT: inhibition at 500 µM
UNITS LABEL: %
OBS VALUE: 28
//
COMPOUND: O=C(NCCCc1c[nH]c(=S)[nH]1)c1cc(Br)c(Br)[nH]1 [Compound 45]
MEASURED ON: P. aeruginosa strain PAO1
READOUT: inhibition at 500 µM
UNITS LABEL: %
OBS VALUE: 61
//
COMPOUND: Cl.Cn1c(C(=O)NCCc2c[nH]cn2)cc(Br)c1Br [Compound 40, hydrochloride]
MEASURED ON: P. aeruginosa strain PAO1
READOUT: inhibition at 500 µM
UNITS LABEL: %
OBS VALUE: 73

API: the following record is the query input.
**Q:** Look at this compound and give its reported inhibition at 500 µM. Cl.Cn1cccc1C(=O)NCCCc1c[nH]c(N)n1 [Compound 21, hydrochloride]
**A:** 25
